GI50 for assorted compounds
- Test system: U-251
- ASSAY SUMMARY: NCI tumour cell line growth inhibition, 48 h
Calls of active or inactive are those of the source. Cut-off read from the data, not from the text of the source: active = GI50 up to about 1.1 µM and inactive = higher.

Some compounds with recorded GI50:
CC(NC(=O)NC(C)(C)C)NC(=O)C(N)CC(=O)O (stereo not given); > 100 µM (inactive)
CCOC(=O)C(Br)(C(N)=O)C1(O)OC(c2ccccc2)=C(Br)C1=O (stereo not given); 17.6 µM (inactive)
CCOc1ccc(OCC(=O)O)c2c1CCCC2=O; > 100 µM (inactive)

Input "CN(C)CCN(c1ccccn1)c1ccccn1" . Output GI50: > 100 µM (inactive)

Input NC(CCCCP(=O)(O)O)C(=O)O (stereo not given) . Output GI50: > 100 µM (inactive)

---

GI50 for assorted compounds
- System: K562
- ASSAY SUMMARY: NCI tumour cell line growth inhibition, 48 h
The source made the active and inactive calls. Rule as the data show it: active = GI50 up to about 1.1 µM and inactive = higher.

CC12CCC(Br)C(C)(C)C1CC=C1C(=O)OCC1O2 (stereo not given); 12.7 µM (inactive)
O=C1c2cc(I)ccc2N2CCN=C2N1Cc1ccccc1; > 100 µM (inactive)
O=C1c2ccccc2-c2c1c1ccccc1c(=O)n2CCO; > 36 µM (inactive)
CN(C)CC(CN(C)C)c1ccccn1; > 100 µM (inactive)

Field: next compound
Input CCC1C2Cc3ccc(O)cc3C1(CC)CCN2C (stereo not given) . Output GI50: > 100 µM (inactive)

---

- System: OVCAR-3
- ASSAY SUMMARY: NCI tumour cell line growth inhibition, 48 h
Calls of active or inactive are those of the source. No stated cut-off is given here; in the data, active = GI50 up to about 1.1 µM and inactive = higher.
Respond only with the outcome that fits, drawn from active, inactive

COc1cccc2c1C(=O)c1c(O)c3c(c(O)c1C2=O)C[C@@](O)(C(=O)CO)CC3OC1CC(NCCCCC(OC(C)=O)OC(C)=O)C(O)C(C)O1 (stereo partly specified); active
O=C1OCC/C1=C/c1ccc(/N=N/c2c(O)ccc3ccccc23)cc1; inactive
CC(C)c1ccc(O)c(=O)cc1; inactive

Outcome? "CN(C)C(=O)c1nnsc1NN=O"
inactive

Outcome? "O=C1C(Cl)=C(N2CCOCC2)C(=O)c2c(O)ccc(O)c21"
active

Outcome? "O=C(O)CCSC1=NCCN1"
inactive

Outcome? "CC1(C)CCC2=C(O1)c1ccccc1/C(=N/c1ccc([N+](=O)[O-])cc1)C2=O"
inactive

---

- Tested on: LOX IMVI
- ASSAY SUMMARY: NCI tumour cell line growth inhibition, 48 h
Active and inactive are the calls of the source. Rule as the data show it: active = GI50 up to about 1.1 µM and inactive = higher.
Respond only with the outcome that fits, drawn from YES (active), NO (inactive)

Observe how each entry below is paired with its result.
C[n+]1c2ccccc2c(C(=O)Nc2ccc(S(=O)(=O)N=C(N)N)cc2)c2ccccc21; NO
CCN(CCC#N)C(=O)Nc1ccccc1; NO
CC(NC(=O)NC(C)(C)C)NC(=O)C(N)CC(=O)O (stereo unspecified); NO
Clc1cccc(-c2sc(-c3ccsc3)cc2Cc2ccsc2)c1; NO

Outcome? O=C1OC2(c3ccccc31)c1cc(I)c(O)c(I)c1Oc1c2cc(I)c(O)c1I [ERYTHROSINE]
NO

Outcome? "O=C1c2cc(I)ccc2N2CCN=C2N1Cc1ccccc1"
NO

Outcome? CC(C)[C@]12O[C@H]1[C@@H]1O[C@]13[C@]1(O[C@H]1C[C@H]1C4=C(CC[C@@]13C)C(=O)OC4)[C@@H]2O [TRIPTOLIDE]
YES

Outcome? "COc1c(C)c(C/C=C(\C)CCCCO[Si](c2ccccc2)(c2ccccc2)C(C)(C)C)c(OC)c(OC)c1OC"
NO

Outcome? "CC(C)=CCC/C(C)=C/Cc1c(O)ccc2c1[nH]c1cc(O)c(C)cc12"
NO

Outcome? "Cc1[nH]n(-c2ncc(C(=O)O)c(=O)[nH]2)c(=O)c1CCO"
NO

Outcome? CCOC(=O)c1c(-c2ccc(O)c(OC)c2)c(C#N)c(=S)n(C2OC(CO)C(O)C(O)C2O)c1-c1ccccc1 (stereo unspecified)
NO

---

GI50 for assorted compounds
- Test system: K562
- ASSAY SUMMARY: NCI tumour cell line growth inhibition, 48 h
Activity calls are given as the source filed them. No stated cut-off is given here; in the data, active = GI50 up to about 1.1 µM and inactive = higher.

Some compounds with recorded GI50:
CC(=O)[C@@]1(C)CC2(CCN(C)CC2)OC1C (stereo partly drawn); > 100 µM (inactive)
c1cc(C[S+]2CCCC2)ccc1C[S+]1CCCC1; > 100 µM (inactive)

Field: next compound
Input "CCC(/C=C/c1ccccc1)=N\NC(=S)N/N=C(/C=C/c1ccccc1)CC" . Output GI50: 19.6 µM (inactive)

---

- Test system: HL-60
- ASSAY SUMMARY: NCI tumour cell line growth inhibition, 48 h
Activity calls are given as the source filed them. No stated cut-off is given here; in the data, active = GI50 up to about 1.1 µM and inactive = higher. Bridge positions count the residues as written; N and C are the ends. Peptide text beside a SMILES is read from it. * marks the point of attachment. Cbz = O=C(OCc1ccccc1)*
Respond only with the outcome that fits, drawn from y (active), n (inactive)

Observe how each entry below is paired with its result.
c1ccc2c3ccn4ccc5c6ccccc6[nH]c5c4c-3nc2c1; y
COc1cc2c(c(OC)c1OC)-c1ccc(SC)c(=O)cc1C(CC(=O)Oc1ccc(F)cc1)C2 (stereo not given); y
Cc1ccc(-c2nc3c(C(=O)NCCN(C)C)cccc3[nH]2)cc1; n
Cc1nc2sccn2c1/C=C1/C(=O)Nc2cccc(Cl)c21; n
COC(=O)c1ccccc1NCc1cc(O)ccc1O; n
CCNC(=O)Cc1nc2c(N)ncnc2n1C1OC(CO)C(O)C1O (stereo not given); n
N#Cc1cc2c(cc1Cl)Sc1nnc(Nc3ccccc3)n1S2(=O)=O; n
O=C1c2cc(I)ccc2N2CCN=C2N1Cc1ccccc1; y

Outcome? CC(=O)OC1COC(Nc2nc(N)n(C)c(=O)c2N=O)C(OC(C)=O)C1OC(C)=O (stereo not given)
n

Outcome? COc1ccc(C2=CC(c3ccccc3)n3nnnc3N2)cc1 (stereo not given)
n

Outcome? "O=C1Nc2ccc([N+](=O)[O-])cc2/C1=N/NC(=S)Nc1ccc([N+](=O)[O-])cc1"
n

Outcome? CNC(=O)C1CCCCNC(=O)CCC(NC(=O)OCc2ccccc2)C(=O)N1 (stereo not drawn) (Cbz-Glu-Lys-NHMe; lactam 1-2; configuration not given here)
n

Outcome? "c1ccc2c(c1)OCCOCCOc1ccccc1OCCO2"
n

Outcome? "O=C(CSc1nnc[nH]1)C[P+](c1ccccc1)(c1ccccc1)c1ccccc1"
n

Outcome? "CCN(CC)C(=S)SS(C)(=O)=O"
n

Outcome? N=C(N)NCCCC(NCc1c2ccccc2[n+]([O-])c2ccccc12)C(=O)O (stereo not given)
n

Outcome? "CC1=NC(=Cc2ccccc2O)C(=O)N1n1c(-c2ccccc2)nc2ccccc2c1=O"
n

Outcome? "COc1cc2cc(C(=O)Nc3cc4n(n3)-c3ccccc3C4)[nH]c2c(OC)c1OC"
n

Outcome? Cc1ccc([N+](=O)[O-])cc1S(=O)(=O)Nc1ccc(C2=NN(C(=O)c3ccccc3)C(c3cccs3)C2)cc1 (stereo not given)
n

Outcome? CCOC(=O)C1CC(O)C(=O)N1C (stereo not given)
n

---

GI50 for assorted compounds
- Test system: SNB-19
- ASSAY SUMMARY: NCI tumour cell line growth inhibition, 48 h
Calls of active or inactive are those of the source. Cut-off read from the data, not from the text of the source: active = GI50 up to about 1.1 µM and inactive = higher.

O=[N+]([O-])c1cccc(C2=NOC3CCCC23)c1 (centres undefined); 25.2 µM (inactive)
CCOC(=O)C12CC1(C(=O)OCC)C1CCC2C1 (centres undefined); > 100 µM (inactive)

Input "Cn1cnc([N+](=O)[O-])c1Sc1nccc(O)n1" . Output GI50: > 100 µM (inactive)

Input "CCOC(=O)C1(C(=O)OCC)COS(=O)OC1" . Output GI50: > 100 µM (inactive)

---

- Test system: OVCAR-8
- ASSAY SUMMARY: NCI tumour cell line growth inhibition, 48 h
The source made the active and inactive calls. No stated cut-off is given here; in the data, active = GI50 up to about 1.1 µM and inactive = higher.
GI50 for assorted molecules

Some molecules with recorded GI50:
O=c1[nH]c(=O)n(C2OC(CO)C(O)C2O)cc1/N=N/NCc1ccccc1 (stereo not drawn); > 100 µM (inactive)
O=C(Nc1nc(C23CC4CC(CC(C4)C2)C3)cs1)c1cc2ccc(O)cc2oc1=O; 6.67 µM (inactive)

Input "CCN(CC)C(=S)SS(C)(=O)=O" . Output GI50: 19.8 µM (inactive)

---

- Test system: RPMI-8226
- ASSAY SUMMARY: NCI tumour cell line growth inhibition, 48 h
Active and inactive are the calls of the source. No stated cut-off is given here; in the data, active = GI50 up to about 1.1 µM and inactive = higher.
GI50 for assorted molecules

Some molecules with recorded GI50:
CC(=O)OCC1OC(Nc2nc(O)n(C)c(=O)c2-c2csc(N)n2)C(OC(C)=O)C(OC(C)=O)C1OC(C)=O (stereo not given); > 100 µM (inactive)
O=C1c2ccccc2-c2c1c1ccccc1c(=O)n2CCO; > 26.9 µM (inactive)
O=[N+]([O-])c1ncc(N(CCO)CCO)s1; 19.5 µM (inactive)
O=C1CSC2(CC(/C=C/c3ccccc3Br)=NN2c2cccc(S(=O)(=O)O)c2)N1c1nc2ccccc2s1 (stereo not given); 44.8 µM (inactive)

Input CC1(c2ccc(Cl)s2)CC(c2ccc(Cl)s2)=C(C#N)C(=C(C#N)C#N)N1 (stereo not given) . Output GI50: 32 µM (inactive)

Input "Cc1ccc(/C=C2\Cc3cc(C)c(C)cc3C2=O)c(C(=O)O)c1" . Output GI50: 40.4 µM (inactive)

Input "Cc1cc(S(=O)(=O)Nc2nc3ccsc3c(=O)n2N)c(S)cc1Cl" . Output GI50: > 100 µM (inactive)

Input "CCc1nc(N)nc(N)c1-c1ccc([N+](C)(C)C)cc1" . Output GI50: > 100 µM (inactive)

Input O=C(O)C(CCc1ccccn1)c1ccccc1 (stereo not given) . Output GI50: > 100 µM (inactive)

Input COC1OC(CBr)C(OC(c2ccccc2)(c2ccccc2)c2ccccc2)C(OC(c2ccccc2)(c2ccccc2)c2ccccc2)C1OC(c1ccccc1)(c1ccccc1)c1ccccc1 (stereo not given) . Output GI50: 65.3 µM (inactive)

Input CC(=O)[C@@]1(C)CC2(CCN(C)CC2)OC1C (stereo not given in full) . Output GI50: > 100 µM (inactive)

Input COc1ccccc1NC1Oc2cc3c(cc2C(c2cc(OC)c(OC)c(OC)c2)C1C)OCO3 (stereo not given) . Output GI50: 1.93 µM (inactive)

Input COc1ccc(/C(=N\NC(=O)NN)C(c2ccc(OC)cc2)C2(O)C(=O)Nc3c(Cl)cc(Cl)cc32)cc1 (stereo not given) . Output GI50: 56.8 µM (inactive)

Input CC(=O)O[C@H]1CC[C@H]2[C@@H]3CCC4C(C)=NNC(=O)C4[C@H]3CC[C@]12C (stereo not given in full) . Output GI50: > 100 µM (inactive)

Input "O=C1Nc2ccc([N+](=O)[O-])cc2/C1=N/NC(=S)Nc1ccc([N+](=O)[O-])cc1" . Output GI50: 34.9 µM (inactive)

Input CC(=O)OC1O[C@@H](C(C)(C)O)CC[C@@H]1[C@H]1CC[C@@]2(C)C3=C(CC[C@]12C)[C@@]1(C)C[C@@H](OC(=O)CC(C)(O)CC(=O)O)[C@H](OC(C)=O)C(C)(C)C1CC3 (stereo not given in full) . Output GI50: 23.3 µM (inactive)

Input "O=C1Nc2ccc(S(=O)(=O)NCCO)cc2/C1=C1/Nc2ccccc2C1=O" . Output GI50: 92.5 µM (inactive)

Input "Cc1c(C(=O)NNc2ccccc2)n2c(S)nnc2c2ccccc12" . Output GI50: 58.2 µM (inactive)

Input "Cc1cc(NS(=O)(=O)c2ccc(NC(=O)c3cccn4c(=O)c5ccccc5nc34)cc2)no1" . Output GI50: > 100 µM (inactive)

Input "COc1ccc2c(CC(=O)O)cc(=O)oc2c1" . Output GI50: > 100 µM (inactive)

Input O=C1OC(c2ccccc2)=NC1c1ccccc1 (stereo not given) . Output GI50: > 100 µM (inactive)

Input "O=C1CSSCC(=O)Nc2ccccc2N1" . Output GI50: > 100 µM (inactive)
